Assay: chemical genetic growth profiling, strain panel (AID 1159580);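 further: tested at 20 µM; growth read once vehicle control cultures reached saturation at 30 °C; 1 = growth at the plate median or of vehicle wells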
Settings: S. cerevisiae deletion strains, growth OD, locus YAL030W, strain snc1
Among all 5,500 compounds or so, about 2,000 (36%) were called active. About 18% were inconclusive and are not listed. No stated cut-off is given here; in the data, active means normalized growth mostly below about 0.91 (no sharp cut-off); inconclusive means no clear call, values can overlap the other calls; inactive means mostly above about 0.92. This is one part of the list.
Give your call using only these classes: active, inactive

compound=C/C=C/c1ccc2c(c1)OCO2 assigned_category=inactive
compound=O=C(O)C1=CCNCC1 assigned_category=inactive
compound="CC1(C)C(=O)C=C[C@@]2(C)C1=C(O)C(=O)[C@]1(C)C2CC[C@@]2(C)[C@H](c3ccoc3)C[C@H]3O[C@]321 (stereo not given in full)" assigned_category=inactive
compound="CO[C@H]1/C=C/O[C@@]2(C)Oc3c(C)c(O)c4c(O)c(c(/C=N/N5CCN(C)CC5)c(O)c4c3C2=O)NC(=O)/C(C)=C\\C=C\\C(C)[C@H](O)[C@@H](C)[C@@H](O)[C@@H](C)[C@@H](OC(C)=O)[C@@H]1C (stereo not given in full)" assigned_category=inactive

Next compound, please.
Task: Given CC(=O)O[C@@H]1CC2C(C)(C)C=CC(=O)[C@]2(C)C2CC[C@@]3(C)[C@H](c4ccoc4)OC(=O)C4OC43[C@@]21C (stereo not given in full) , state the outcome it received in this test.
Output: inactive

----------
Assay: chemical genetic growth profiling, strain panel (AID 1159580);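 further: tested at 20 µM; growth read once vehicle control cultures reached saturation at 30 °C; 1 = growth at the plate median or of vehicle wells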
Conditions: S. cerevisiae deletion strains, growth OD, locus YDL005C, strain med2, stronger effect = lower value
In all, about 5,500 compounds went through this assay and about 2,000 (36%) were called active. Inconclusive results (about 18%) are left out. The list shows a part of the results.
Each entry below lists one item and its recorded normalized growth value.
Lab note: write the figure by itself, no unit.

compound=CC(=O)NCCCS(=O)(=O)O metric="normalized growth" measured=1.01
compound=OC[C@@H]1CCCN2CCCC[C@H]12 metric="normalized growth" measured=1.03
compound=O=C(O)/C=C/C=C/c1ccccc1 metric="normalized growth" measured=0.875
compound=CN(C)CCOc1ccc(/C(=C(/CCCl)c2ccccc2)c2ccccc2)cc1 metric="normalized growth" measured=0.0725
compound=Nc1ccc(C(=O)NCC(=O)O)cc1 metric="normalized growth" measured=1.01
compound="CCCCC(CC)CN1CN(CC(CC)CCCC)CC(C)(N)C1 (stereo unspecified)" metric="normalized growth" measured=0.0691
compound=Nc1ccc([As](=O)(O)O)cc1 metric="normalized growth" measured=0.996
compound=COc1cc(C(=O)NCc2ccc(OCCN(C)C)cc2)cc(OC)c1OC metric="normalized growth" measured=1.01

normalized growth for O=C1C=CC2=C3c4cc(O)c(O)cc4CC3(O)COC2=C1O (stereo unspecified) is 1.06

normalized growth for CN/C(=C\[N+](=O)[O-])NCCSCc1ccc(CN(C)C)o1 is 0.977

----------
Assay: chemical genetic growth profiling, strain panel (AID 1159580);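 further: tested at 20 µM; growth read once vehicle control cultures reached saturation at 30 °C; 1 = growth at the plate median or of vehicle wells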
Conditions: S. cerevisiae deletion strains, growth OD, locus YLR258W, strain gsy2, stronger effect = lower value
The whole screen tested about 5,500 compounds, of which about 2,000 (36%) were called active. Inconclusive results (about 18%) are left out. The list shows a part of the results.
Each entry below lists one item and its recorded normalized growth value.
Lab note: write the figure by itself, no unit.

These recorded examples may help you get a feel for the data.
compound="CCCC1O[C@@H]2CC3C4CCC5=CC(=O)C=CC5(C)C4[C@@H](O)CC3(C)[C@]2(C(=O)CO)O1 (stereo partly specified)" measured=1.02
compound=C1CNCCN1 measured=1.01
compound=Cc1ccsc1/C=C/C1=NCCCN1C measured=0.988
compound="C=C(C)C1CC=C(CO)CC1 (stereo unspecified)" measured=0.979
compound="C=CC(C)(O)CC/C=C(\\C)CCC=C(C)C (stereo unspecified)" measured=0.966
compound="O=C1CCCC2C3CC(CN12)[C@@H]1CCCCN1C3 (stereo partly specified)" measured=0.999
compound="CC(C)NCC(O)c1ccc2ccccc2c1 (stereo unspecified)" measured=0.996
compound=C1CCN2C[C@@H]3C[C@H](CN4CCCC[C@@H]34)[C@H]2C1 measured=1.01
compound=CC(C)=CCC/C(C)=C/CC/C(C)=C/CC/C(C)=C/CC/C(C)=C/CC/C(C)=C/CC/C(C)=C/CC/C(C)=C/CC/C(C)=C/CO measured=0.992
compound="O=C1O[C@H](C(O)CO)C(O)=C1O (stereo partly specified)" measured=0.99

normalized growth for C1CCN2CC3CC(CN4CCCCC34)C2C1 (stereo unspecified) is 1.02
